Reference for the values: patent US11504441B2

Quick reference for tissue uptake at 4 h among some molecules
- run_description: in vivo
- Parameters: species or system mice
- measurement_context: male, NODSCID 1L2RγKO, mouse, iv, total radioactivity, Tail uptake

molecule	tissue uptake at 4 h
COc1ccc(CCCC(=O)NCC(=O)N[C@@H](CCCCNC(=O)CN2CCN(CC(=O)O)CCN(CC(=O)O)CCN(CC(=O)O)CC2)C(=O)NC[C@H]2CC[C@H](C(=O)N[C@@H](Cc3c4ccccc4cc4ccccc34)C(=O)NCCCC[C@H](NC(=O)N[C@@H](COCC(=O)O)C(=O)O)C(=O)O)CC2)cc1 [177Lu-HTK04028, metal not drawn]	2.21 %ID/g
COc1ccc(CCCC(=O)NCC(=O)N[C@@H](CCCCNC(=O)CN2CCN(CC(=O)O)CCN(CC(=O)O)CCN(CC(=O)O)CC2)C(=O)NC[C@H]2CC[C@H](C(=O)N[C@@H](Cc3c4ccccc4cc4ccccc34)C(=O)NCCCC[C@H](NC(=O)N[C@@H](CSCC(=O)O)C(=O)O)C(=O)O)CC2)cc1 [177Lu-HTK04048, metal not drawn]	2.72 %ID/g
O=C(O)CCC[C@H](NC(=O)N[C@@H](CCCCNC(=O)[C@H](Cc1c2ccccc2cc2ccccc12)NC(=O)[C@H]1CC[C@H](CNC(=O)[C@H](CCCCNC(=O)CN2CCN(CC(=O)O)CCN(CC(=O)O)CCN(CC(=O)O)CC2)NC(=O)CNC(=O)CCCc2ccc(Cl)cc2)CC1)C(=O)O)C(=O)O [177Lu-HTK03153, metal not drawn]	6.89 %ID/g

---

- run_description: in vivo
- Set-up: species or system mice
- measurement_context: male, NODSCID 1L2RγKO, mouse, iv, total radioactivity, Fat uptake

compound	readout_units	tissue uptake at 1 h
COc1ccc(CCCC(=O)NCC(=O)N[C@@H](CCCCNC(=O)CN2CCN(CC(=O)O)CCN(CC(=O)O)CCN(CC(=O)O)CC2)C(=O)NC[C@H]2CC[C@H](C(=O)N[C@@H](Cc3c4ccccc4cc4ccccc34)C(=O)NCCCC[C@H](NC(=O)N[C@@H](CCCC(=O)O)C(=O)O)C(=O)O)CC2)cc1 [177Lu-HTK03170, metal not drawn]	%ID/g	1.38
COc1ccc(CCCC(=O)NCC(=O)N[C@@H](CCCCNC(=O)CN2CCN(CC(=O)O)CCN(CC(=O)O)CCN(CC(=O)O)CC2)C(=O)NC[C@H]2CC[C@H](C(=O)N[C@@H](Cc3c4ccccc4cc4ccccc34)C(=O)NCCCC[C@H](NC(=O)N[C@@H](CSCC(=O)O)C(=O)O)C(=O)O)CC2)cc1 [177Lu-HTK04048, metal not drawn]	%ID/g	1.32
O=C(O)CCC[C@H](NC(=O)N[C@@H](CCCCNC(=O)[C@H](Cc1c2ccccc2cc2ccccc12)NC(=O)[C@H]1CC[C@H](CNC(=O)CN2CCN(CC(=O)O)CCN(CC(=O)O)CCN(CC(=O)O)CC2)CC1)C(=O)O)C(=O)O [177Lu-HTK03149, metal not drawn]	%ID/g	0.14
O=C(O)CCC[C@H](NC(=O)N[C@@H](CCCCNC(=O)[C@H](Cc1c2ccccc2cc2ccccc12)NC(=O)[C@H]1CC[C@H](CNC(=O)[C@H](CCCCNC(=O)CN2CCN(CC(=O)O)CCN(CC(=O)O)CCN(CC(=O)O)CC2)NC(=O)CNC(=O)CCCc2ccc(Cl)cc2)CC1)C(=O)O)C(=O)O [177Lu-HTK03153, metal not drawn]	%ID/g	1.61
COc1ccc(CCCC(=O)NCC(=O)N[C@@H](CCCCNC(=O)CN2CCN(CC(=O)O)CCN(CC(=O)O)CCN(CC(=O)O)CC2)C(=O)NC[C@H]2CC[C@H](C(=O)N[C@@H](Cc3c4ccccc4cc4ccccc34)C(=O)NCCCC[C@H](NC(=O)N[C@@H](COCC(=O)O)C(=O)O)C(=O)O)CC2)cc1 [177Lu-HTK04028, metal not drawn]	%ID/g	1.26
